target-entity: CaMN composed of amino acids 1–75 (UniProt P0DP23 2-76)
assay-info: ITC
reported-property: pKd
Just so you know, pKd here is -log10 of the concentration in molar units; reply with that number alone.

Just so you know, measured pKd for Ac-KKFNARRKLKGAILTTMLATRN-NH2 [CaMKII(291–312) peptide] came out at 6.55
